The entries below are paired with their reported IC50.
target: α7-subtype of nicotinic receptors (Rattus norvegicus); experiment: biochemical; type: binding
Sequence (Q05941 23-502): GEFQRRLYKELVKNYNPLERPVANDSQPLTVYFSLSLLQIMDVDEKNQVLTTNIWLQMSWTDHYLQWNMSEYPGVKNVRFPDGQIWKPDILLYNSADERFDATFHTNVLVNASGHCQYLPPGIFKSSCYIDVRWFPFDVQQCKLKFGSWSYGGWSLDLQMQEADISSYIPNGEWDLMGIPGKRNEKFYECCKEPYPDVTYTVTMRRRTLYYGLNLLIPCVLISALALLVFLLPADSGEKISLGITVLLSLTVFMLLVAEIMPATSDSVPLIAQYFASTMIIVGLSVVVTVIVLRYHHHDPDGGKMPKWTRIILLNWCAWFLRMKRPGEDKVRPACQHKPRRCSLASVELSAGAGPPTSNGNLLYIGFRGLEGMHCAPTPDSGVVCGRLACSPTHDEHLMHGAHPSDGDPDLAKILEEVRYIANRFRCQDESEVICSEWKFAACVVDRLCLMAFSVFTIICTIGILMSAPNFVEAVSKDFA

[
  {
    "compound": "Ic1cnc(N2CCN3CCC2CC3)nc1 [Compound 2]",
    "u": "nM",
    "IC50": 38
  },
  {
    "compound": "Clc1cnc(N2CCN3CCC2CC3)nc1 [Compound 3]",
    "u": "nM",
    "IC50": 190
  },
  {
    "compound": "Brc1cnc(N2CCN3CCC2CC3)nc1 [Compound 1]",
    "u": "nM",
    "IC50": 280
  }
]
